Tested on: HCC-2998 colon
Experiment: NCI tumour cell line growth inhibition, 48 h
What GI50 was measured for each of the following?

Fill in the recorded GI50 for this compound, with HCC-2998 colon as test system: O=C(NCCCO)c1cc(Cl)ccc1O
3.1 µM

// fetch HCC-2998 colon GI50 for CC(=O)c1c(C)[nH]c(-c2nc3ccc(N4CCN(C)CC4)cc3[nH]2)c1-c1ccc(N(C)C)cc1
1.06 µM

API: value(readout=GI50, system=HCC-2998 colon) for record Cc1nnc(-c2cccc(-c3ccc(C(=O)NCC4CC4)cc3)c2)o1
> 25 µM

Param readout = GI50; param system = HCC-2998 colon; param query = C=C1CCC2C3(C)COC(c4ccccc4)OC3CCC2(C)C1/C=C/C1=CCOC1=O (centres undefined) ; response: value
7.75 µM

API: value(readout= GI50, system= HCC-2998 colon, query= CCC(=C/[C@H](C)C/C=C/C(C)=C/[C@@H](C)C(=O)[C@@H](C)[C@H](O)[C@@H](C)CC)/C=C/[C@@H]1OC(=O)C=C[C@H]1C )
< 0.01 µM

Find the measured GI50: item CC(C)=CCC/C(C)=C/CC/C(C)=C/CSc1ccccc1C(=O)O , target or system HCC-2998 colon.
28.9 µM

API: value(readout=GI50, system=HCC-2998 colon) for record O=C(COc1cc(O)c2c(=O)cc(-c3ccccc3)oc2c1)Nc1ccccc1C(F)(F)F
> 100 µM

Field: GI50 (HCC-2998 colon). Entry: COC(=O)c1cc(O)c2cc3c(cc2c1-c1cc(OC)c(OC)c(OC)c1)OCO3
6.85 µM

So what GI50 did O=C(c1ccccc1)C(CN1CCCCC1)c1ccccc1 (centres undefined) get with HCC-2998 colon?
3.97 µM

Entry CN(Cc1ccccc1)c1ccc(CO)c(Cl)c1 , system HCC-2998 colon: what GI50 was measured?
13 µM

Please state recorded GI50 (tested on HCC-2998 colon) of O=C(Nc1ccncc1)C(=O)c1cn(S(=O)(=O)c2ccc(Cl)cc2)c2ccccc12
10.3 µM

Recorded GI50 for O=C(Nc1ccc(Cl)c(Cl)c1)Nc1c(Oc2ccc(Cl)c(Cl)c2)ccc(Cl)c1S(=O)(=O)O with HCC-2998 colon, please?
2.11 µM

Give recorded GI50 with HCC-2998 colon for the following compound: C[C@@]12CCC[C@@](C)(C(=O)O)C1CC[C@]13C[C@@](O)(CO)[C@](O)(CCC12)C3 (some centres undefined)
> 100 µM

Missing value: GI50, HCC-2998 colon, entry C#CCSc1cc(Cl)c(C)cc1S(=O)(=O)Nc1nc2ccccc2o1 . Fill in?
22.5 µM

---

System: OVCAR-4 ovarian
Experiment: NCI tumour cell line growth inhibition, 48 h
Could you please report measured TGI for the items listed next?
Value expressed in µM; do not type the unit.

I am curious: what TGI value has been reported for Cc1nc2ccccc2c(/C=C/c2ccc(Cl)cc2)c1C(=O)/C=C/c1ccc(C(F)(F)F)cc1 ?
2.61

Would you mind telling me what TGI value was observed for COc1cccc(NC(=O)c2sc3nc(C)c(C(O)c4ccccc4)cc3c2N)c1 (centres undefined) ?
32.7

Item under review: Oc1ccc(C(c2ccc(O)cc2)c2ccc(O)cc2)cc1 . Reported TGI?
29.1

Which TGI is listed for COc1ccccc1-c1cc(=O)c2cc3c(cc2[nH]1)OCO3 ?
92
